Data provenance: paper PMC7265341

Tested On: CDK14/Cyclin Y (Homo sapiens, UniProt O94921)
Sequence (O94921 whole entry, one chain of several): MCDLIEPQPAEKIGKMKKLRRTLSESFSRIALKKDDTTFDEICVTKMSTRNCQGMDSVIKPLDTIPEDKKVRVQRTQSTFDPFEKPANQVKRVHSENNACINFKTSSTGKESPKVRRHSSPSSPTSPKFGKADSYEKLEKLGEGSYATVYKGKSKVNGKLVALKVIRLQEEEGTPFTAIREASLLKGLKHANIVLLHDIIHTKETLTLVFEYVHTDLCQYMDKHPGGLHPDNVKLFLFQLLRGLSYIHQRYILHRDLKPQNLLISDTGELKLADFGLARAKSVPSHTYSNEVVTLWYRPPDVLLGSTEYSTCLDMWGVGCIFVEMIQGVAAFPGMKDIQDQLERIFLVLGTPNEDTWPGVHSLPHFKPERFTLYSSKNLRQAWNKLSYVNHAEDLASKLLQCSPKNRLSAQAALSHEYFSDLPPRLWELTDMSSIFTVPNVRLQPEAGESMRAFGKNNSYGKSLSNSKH
Test Description: NanoBRET live-cell target engagement, CDK14-NanoLuc/Cyclin Y in HEK-293
Type: binding
Protocol Conditions: 10µM; average of experiments; read-out: CDK14/Y Inhibition at 10µM (%)
Recorded Endpoint: inhibition at 10 µM (%)

Below, 3 compounds whose answers are already recorded.
>  <Chem Smiles>
CN1C/C=C/CCOc2cccc(c2)-c2ccnc(n2)Nc2cccc(c2)C1

>  <Tested On>
CDK14/Cyclin Y (Homo sapiens, UniProt O94921)

>  <inhibition at 10 µM, %>
97.2

$$$$
>  <Chem Smiles>
CC(C)[C@H](CO)Nc1nc(Nc2ccc(C(=O)O)c(Cl)c2)c2ncn(C(C)C)c2n1

>  <Tested On>
CDK14/Cyclin Y (Homo sapiens, UniProt O94921)

>  <inhibition at 10 µM, %>
-0.116

$$$$
>  <Chem Smiles>
CN(C)C/C=C/C(=O)Nc1ccc(C(=O)N2CCC[C@@H](Nc3ncc(Cl)c(-c4c[nH]c5ccccc45)n3)C2)cc1

>  <Tested On>
CDK14/Cyclin Y (Homo sapiens, UniProt O94921)

>  <inhibition at 10 µM, %>
41.8

$$$$

(1) CN1CCN(c2ccc(Nc3ncc4cc5n(c4n3)C3(CCCCC3)CNC5=O)nc2)CC1
(2) CC(C)CC(=O)Nc1[nH]nc2c1CN(C(=O)C1CCN(C)CC1)C2(C)C
QUERY: Kindly compare 1 with 2 and tell me which has the lower inhibition at 10 µM figure. Reply briefly: the label of your chosen item.
RESULT: 1
(1: 11.3%, 2: 81.4%)

---

Tested On: CDK9/Cyclin K (Homo sapiens)
Sequence (P50750 whole entry): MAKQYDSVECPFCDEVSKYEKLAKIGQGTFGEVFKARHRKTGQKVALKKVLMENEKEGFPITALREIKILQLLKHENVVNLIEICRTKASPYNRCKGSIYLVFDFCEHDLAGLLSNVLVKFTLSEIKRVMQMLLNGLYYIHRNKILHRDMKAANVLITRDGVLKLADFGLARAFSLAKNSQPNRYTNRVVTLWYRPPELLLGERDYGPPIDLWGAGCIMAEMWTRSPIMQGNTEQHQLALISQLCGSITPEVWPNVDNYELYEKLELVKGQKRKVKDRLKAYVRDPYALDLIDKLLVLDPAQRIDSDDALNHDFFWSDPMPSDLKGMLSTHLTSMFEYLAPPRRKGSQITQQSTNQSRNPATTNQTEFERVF
Sequence (O75909 whole entry partner): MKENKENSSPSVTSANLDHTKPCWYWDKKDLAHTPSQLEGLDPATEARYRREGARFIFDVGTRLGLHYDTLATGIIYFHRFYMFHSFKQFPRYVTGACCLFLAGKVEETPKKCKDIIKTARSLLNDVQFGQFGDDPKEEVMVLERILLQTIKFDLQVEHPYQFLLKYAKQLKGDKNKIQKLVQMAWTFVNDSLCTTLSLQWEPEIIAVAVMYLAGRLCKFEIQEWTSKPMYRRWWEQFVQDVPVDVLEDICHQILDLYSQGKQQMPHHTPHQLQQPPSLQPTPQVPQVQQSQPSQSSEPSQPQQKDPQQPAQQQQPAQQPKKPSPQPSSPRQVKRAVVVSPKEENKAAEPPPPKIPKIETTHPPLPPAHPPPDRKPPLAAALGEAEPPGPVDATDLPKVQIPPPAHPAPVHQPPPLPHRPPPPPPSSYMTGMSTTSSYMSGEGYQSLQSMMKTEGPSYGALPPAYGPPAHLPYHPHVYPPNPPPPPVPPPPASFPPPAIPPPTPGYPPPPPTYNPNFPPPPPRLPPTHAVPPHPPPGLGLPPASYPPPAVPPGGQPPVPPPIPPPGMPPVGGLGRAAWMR
Test Description: NanoBRET live-cell target engagement, NanoLuc-CDK9/Cyclin K in HEK-293
Type: binding
Protocol Conditions: CDK9/K; experiment 2; read-out: Inhibition at 10µM (%)
Recorded Endpoint: inhibition at 10 µM (%)

(P) N#CCNC(=O)c1ccc(-c2ccnc(Nc3ccc(N4CCOCC4)cc3)n2)cc1 [Momelotinib]
(Q) CN1CC[C@H](c2c(O)cc(O)c3c(=O)cc(-c4ccccc4Cl)oc23)[C@H](O)C1 [Flavopiridol]
QUERY: Which record shows the lower inhibition at 10 µM: the first, P , or the second, Q ? Selection: enter the item's label.
RESULT: P
(P: 29.7%, Q: 98%)

(1) CN1CCN(c2ccc(Nc3ncc4cc(C#N)c(=O)n(C5CCCC5)c4n3)cc2)CC1 [ON123300]
(2) CN1CCN(Cc2ccc(NC(=O)Nc3ccc(Oc4ccnc(N)n4)cc3)cc2C(F)(F)F)CC1 [K03861]
QUERY: Select the item whose inhibition at 10 µM value is smaller, choosing between 1 and 2 . Write down the label attached to your selection.
RESULT: 1

---

Tested On: CDK18/Cyclin Y (Homo sapiens, UniProt Q07002)
Sequence (Q07002 whole entry): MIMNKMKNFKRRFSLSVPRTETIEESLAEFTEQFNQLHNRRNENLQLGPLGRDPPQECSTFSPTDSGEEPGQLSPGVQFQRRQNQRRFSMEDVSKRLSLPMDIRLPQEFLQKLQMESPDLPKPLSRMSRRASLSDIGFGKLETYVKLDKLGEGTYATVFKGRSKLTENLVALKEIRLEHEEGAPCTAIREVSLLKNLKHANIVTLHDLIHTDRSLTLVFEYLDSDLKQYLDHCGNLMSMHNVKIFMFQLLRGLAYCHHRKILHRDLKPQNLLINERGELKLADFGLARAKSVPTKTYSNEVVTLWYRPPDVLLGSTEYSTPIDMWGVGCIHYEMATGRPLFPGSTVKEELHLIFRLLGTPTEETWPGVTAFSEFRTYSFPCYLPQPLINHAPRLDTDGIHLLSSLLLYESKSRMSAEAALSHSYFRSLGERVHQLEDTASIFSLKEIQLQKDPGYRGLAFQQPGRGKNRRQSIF
Sequence (Q8ND76 whole entry partner): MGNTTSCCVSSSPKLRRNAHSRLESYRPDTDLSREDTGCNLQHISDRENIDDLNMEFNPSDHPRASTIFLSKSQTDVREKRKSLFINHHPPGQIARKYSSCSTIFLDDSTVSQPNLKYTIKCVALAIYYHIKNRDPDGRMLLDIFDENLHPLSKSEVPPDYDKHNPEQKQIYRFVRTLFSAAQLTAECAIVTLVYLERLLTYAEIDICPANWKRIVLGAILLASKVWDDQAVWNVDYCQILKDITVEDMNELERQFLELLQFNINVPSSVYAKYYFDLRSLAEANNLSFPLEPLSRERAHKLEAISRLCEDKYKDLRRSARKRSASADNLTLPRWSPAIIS
Test Description: NanoBRET live-cell target engagement, CDK18-NanoLuc/Cyclin Y in HEK-293
Type: binding
Protocol Conditions: CDK18/Y; 10µM
Recorded Endpoint: Inhibition at 10µM (%) Replicate 1

>  <Compound>
CC(C)c1cnn2c(NCc3ccccc3)cc(N[C@@H](CO)[C@H](O)CO)nc12 [BS-194]

>  <Inhibition at 10µM (%) Replicate 1>
80.3

$$$$
>  <Compound>
CNC1CCN(C(=O)c2ccc(Nc3ncc(F)c(-c4cnc(C)n4C(C)C)n3)cc2)C1 (stereo not shown) [AZD5597]

>  <Inhibition at 10µM (%) Replicate 1>
94.0

$$$$

(1) CCC(CO)Nc1nc(Nc2cccc(-c3ccccn3)c2)c2ncn(C(C)C)c2n1.Cl.O [(R) - DRF053]
(2) O=C(Nc1c[nH]nc1-c1ccccn1)c1nn(C2CCNCC2)cc1Cl [BDP5290]
QUERY: Field: lower recorded Inhibition at 10µM (%) Replicate 1 (choose 1 or 2 ) Kindly state the label of the option you pick.
RESULT: 2
(2: 16.5%, 1: 37.9%)
